# Tested on: KBALB-STK
# assayName: In vitro cell cytotoxicity against KBALB-STK cell lines expressed in HSV-1 TK
# Assay type: functional
# protocolConditions: Mus musculus
Task for the reader: assign each of the following molecules its reported CC50.
Write it as a number; the unit µM goes unstated.

Q: Given O=c1[nH]c(=O)n([C@H]2C[C@H](O)[C@@H](CO)O2)cc1I [IDOXURIDINE] , state its recorded CC50.
Ans: 10

Q: Value lookup for CC50; key = O=c1[nH]c(=O)n([C@H]2C[C@H](O[N+](=O)[O-])[C@@H](CO)O2)cc1I
Ans: 260

Q: Param item = O=c1[nH]c(=O)n([C@H]2C[C@H](O[N+](=O)[O-])[C@@H](CO)O2)cc1F ; retrieve measured CC50.
Ans: 3.5

Q: Entry under review: O=[N+]([O-])O[C@H]1CO[C@H]2[C@@H]1OC[C@H]2O[N+](=O)[O-] [ISOSORBIDE DINITRATE] . Reported CC50?
Ans: 650

Data provenance is ChEMBL document CHEMBL1136729.
